experiment: Ratio of drug level in tumor to blood of human PSMA expressing PC3 PIP and PSMA deficient human PC3 flu cells xenografted SCID mouse at 2 uCi, iv after 5 hrs; format: ADME, organism-based
experimentalEndpoint: Kp at 5 h

[
  {
    "smilesData": "O=C(O)CC[C@H](NC(=O)N[C@@H](CCCCNC(=O)c1ccc([18F])cc1)C(=O)O)C(=O)O",
    "obsValue": 117
  }
]

* * *

biological target: Glutamate carboxypeptidase 2 (Homo sapiens, UniProt Q04609); assay: Inhibition of PSMA in human LNCaP cell extract using [3H]NAAG by fluorescence-based assay; type: cell-free
Sequence (Q04609 whole entry): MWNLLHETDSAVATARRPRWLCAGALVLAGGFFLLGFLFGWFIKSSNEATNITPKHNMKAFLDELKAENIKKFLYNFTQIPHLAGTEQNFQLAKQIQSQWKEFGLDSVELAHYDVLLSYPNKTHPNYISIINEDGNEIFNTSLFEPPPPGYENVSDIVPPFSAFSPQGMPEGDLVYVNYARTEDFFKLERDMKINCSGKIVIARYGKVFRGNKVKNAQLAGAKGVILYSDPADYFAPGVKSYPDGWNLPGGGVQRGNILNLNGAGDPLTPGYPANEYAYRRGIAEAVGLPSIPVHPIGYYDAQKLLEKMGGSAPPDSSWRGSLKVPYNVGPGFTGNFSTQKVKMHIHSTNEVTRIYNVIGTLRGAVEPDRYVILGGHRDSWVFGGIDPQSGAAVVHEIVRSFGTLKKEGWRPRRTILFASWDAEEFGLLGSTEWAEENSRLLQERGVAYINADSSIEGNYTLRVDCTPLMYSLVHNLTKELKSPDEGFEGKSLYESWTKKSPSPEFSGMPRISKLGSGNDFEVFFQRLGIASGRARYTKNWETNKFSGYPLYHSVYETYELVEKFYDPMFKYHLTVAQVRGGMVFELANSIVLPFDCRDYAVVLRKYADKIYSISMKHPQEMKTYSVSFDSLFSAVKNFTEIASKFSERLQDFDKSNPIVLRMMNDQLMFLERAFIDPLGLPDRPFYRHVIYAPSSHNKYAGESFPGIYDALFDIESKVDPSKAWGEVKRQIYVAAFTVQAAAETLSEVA

[
  {
    "smilesData": "O=C(O)CC[C@H](NC(=O)N[C@@H](CCCCNC(=O)c1ccc(F)cc1)C(=O)O)C(=O)O",
    "Ki": "0.194 nM"
  }
]

* * *

assay: Ratio of drug level in tumor to blood of human PSMA expressing PC3 PIP and PSMA deficient human PC3 flu cells xenografted SCID mouse at 2 uCi, iv after 60 mins; type: ADME, organism-based

[
  {
    "smilesData": "O=C(O)CC[C@H](NC(=O)N[C@@H](CCCCNC(=O)c1ccc([18F])cc1)C(=O)O)C(=O)O",
    "Kp at 1 h": 9
  }
]

* * *

experiment: Ratio of drug level in tumor to blood of human PSMA expressing PC3 PIP and PSMA deficient human PC3 flu cells xenografted SCID mouse at 2 uCi, iv after 30 mins; assay type: ADME, organism-based
experimentalEndpoint: Kp at 0.5 h

[
  {
    "smilesData": "O=C(O)CC[C@H](NC(=O)N[C@@H](CCCCNC(=O)c1ccc([18F])cc1)C(=O)O)C(=O)O",
    "experimentalEndpoint": "Kp at 0.5 h",
    "obsValue": 3
  }
]
